- Species on record: Rattus norvegicus
- PROTOCOL DESCRIPTION: DrugMatrix - Regimen: Daily Repeat
- Format: toxicity, organism-based, Sprague-Dawley
- Parameters: regimen Daily Repeat, gender Male, age 6-8 weeks
- CONDITION DESCRIPTION: in vivo, po, 0 mg/kg, 120 h, tissue Plasma, route oral GAVAGE, dose level Control, time 5 day, vehicle .5 % CMC
OBSERVED PROPERTY: ASPARTATE AMINOTRANSFERASE (u/L)

{"columns": ["COMPOUND", "UNIT SPEC", "MEASURED NUMBER"],
 "data": [
  ["COc1cc(NC(C)CCCN)c2ncccc2c1 (stereo not given)", "u/L", 61.33],
  ["CC(C)(C#N)c1cc(Cn2cncn2)cc(C(C)(C)C#N)c1", "u/L", 74.17],
  ["O=C(O)CCc1nc(-c2ccccc2)c(-c2ccccc2)o1", "u/L", 81.83],
  ["CCOc1cc(N)c(Cl)cc1C(=O)NCC1CN(Cc2ccc(F)cc2)CCO1 (stereo not given) [MOSAPRIDE]", "u/L", 89.67],
  ["CN(C)CCC=C1c2ccccc2COc2ccccc21 [DOXEPIN]", "u/L", 60.83],
  ["CCN1CCN(c2cc3c(cc2F)c(=O)c(C(=O)O)cn3C2CC2)CC1", "u/L", 68.33],
  ["CN(C)CCOC(c1ccccc1)c1ccccc1.Cn1c(=O)c2[nH]c(Cl)nc2n(C)c1=O [DIMENHYDRINATE]", "u/L", 81.67],
  ["NCC(CC(=O)O)c1ccc(Cl)cc1 (stereo not given)", "u/L", 89.67],
  ["CC(C)Cc1ccc([C@H](C)C(=O)O)cc1", "u/L", 66.67],
  ["Cc1cc2c(s1)Nc1ccccc1N=C2N1CCN(C)CC1", "u/L", 90.17]
]}
